# System: CHO
# test: Ratio of AC50 for ProLink-tagged D3 receptor (unknown origin) expressed in CHO cells to AC50 for ProLink-tagged D2 receptor (unknown origin) expressed in CHO cells by beta-arrestin assay
# Format: cell-based
# measurement setup: Homo sapiens
Lab note: compare Ratio against 6. Equal or greater, write met. Smaller, write not met.

CN1C(=O)c2ccccc2[S@+]([O-])c2ccc(C(=O)NCc3cccnc3)cc21 : not met
CN1C(=O)c2ccccc2[S@+]([O-])c2ccc(C(=O)NCc3ccc(Br)cc3)cc21 : not met
CCN1C(=O)c2ccccc2[S@+]([O-])c2ccc(C(=O)N[C@H](C)c3ccc4ccccc4c3)cc21 : met
CN1C(=O)c2ccccc2[S@+]([O-])c2ccc(C(=O)NCc3ccc(Cl)cc3)cc21 : not met
CCN1C(=O)c2ccccc2[S@+]([O-])c2ccc(C(=O)NCc3ccc(F)cc3)cc21 : not met
CCN1C(=O)c2ccccc2[S@+]([O-])c2ccc(C(=O)N[C@H](C)c3ccc(Br)cc3)cc21 : met
CN1C(=O)c2ccccc2[S@+]([O-])c2ccc(C(=O)NCCN3CCCC3)cc21 : met
CCN1C(=O)c2ccccc2[S@+]([O-])c2ccc(C(=O)NCc3ccc(C#N)cc3)cc21 : met
